Origin of the recorded values: ChEMBL document CHEMBL4196006

# target-under-test: Aurora kinase B (Homo sapiens)
# Sequence (Q96GD4 whole entry): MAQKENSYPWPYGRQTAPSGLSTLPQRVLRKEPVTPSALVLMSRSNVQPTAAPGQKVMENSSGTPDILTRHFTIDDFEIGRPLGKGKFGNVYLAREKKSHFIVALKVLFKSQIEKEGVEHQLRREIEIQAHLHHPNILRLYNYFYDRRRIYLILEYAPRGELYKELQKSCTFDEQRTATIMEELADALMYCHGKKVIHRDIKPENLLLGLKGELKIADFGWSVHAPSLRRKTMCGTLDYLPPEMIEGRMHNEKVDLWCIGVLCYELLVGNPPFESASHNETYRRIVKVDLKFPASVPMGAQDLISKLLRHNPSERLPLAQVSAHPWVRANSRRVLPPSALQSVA
# measurement-notes: Inhibition of recombinant full-length human aurora B kinase expressed in baculovirus system at 10 uM using MBP as substrate incubated for 45 mins by ADP-glo kinase assay
# condition-details: probe MBP
reported-metric: inhibition at 0.75 h, 10 µM (%)

(a) Cc1ccsc1/C=N/NC(N)=S
(b) NC(=S)N/N=C/c1ccco1
Asked: Please choose the item with the lower inhibition at 0.75 h, 10 µM value from this pair: a and b Choose, then provide that item's label.
Given back: b

---

# target-under-test: CYP3A4 (Homo sapiens, UniProt P08684)
# Sequence (P08684 whole entry): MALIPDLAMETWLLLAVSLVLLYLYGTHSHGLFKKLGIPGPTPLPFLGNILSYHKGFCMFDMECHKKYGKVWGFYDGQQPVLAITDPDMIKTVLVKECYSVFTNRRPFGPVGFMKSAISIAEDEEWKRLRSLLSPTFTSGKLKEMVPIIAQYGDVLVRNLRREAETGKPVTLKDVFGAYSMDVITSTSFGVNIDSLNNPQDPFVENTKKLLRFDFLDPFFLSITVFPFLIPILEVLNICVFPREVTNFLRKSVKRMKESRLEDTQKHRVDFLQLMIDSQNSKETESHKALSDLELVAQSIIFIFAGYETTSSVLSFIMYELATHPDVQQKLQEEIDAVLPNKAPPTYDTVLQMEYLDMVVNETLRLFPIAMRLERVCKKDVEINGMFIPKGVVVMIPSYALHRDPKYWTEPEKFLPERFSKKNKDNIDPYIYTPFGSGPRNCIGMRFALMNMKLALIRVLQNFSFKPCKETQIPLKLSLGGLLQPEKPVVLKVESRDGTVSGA
# measurement-notes: Inhibition of human microsomal CYP3A4 expressed in baculovirus infected BTI-TN-5B1-4 cells at 10 uM incubated for 30 mins by luciferase assay relative to control
# Format: ADME
reported-metric: inhibition at 0.5 h, 10 µM (%)

Recorded inhibition at 0.5 h, 10 µM, per entry:
>>> experimental_result("COc1ccccc1/C=N/NC(N)=S")
-23.2
>>> experimental_result("N/C(S)=N/N=C/c1ccc(Cl)c(Cl)c1")
-10.6
>>> experimental_result("NC(=S)N/N=C/c1ccc(-c2ccccc2)cc1")
-16.1
>>> experimental_result("COc1ccc(/C=N/NC(N)=S)cc1OC")
-24.4
>>> experimental_result("COc1cc(/C=N/NC(N)=S)ccc1O")
-9.76

(a) NC(=S)N/N=C/c1ccccc1O
(b) NC(=S)N/N=C/c1cccc(-c2ccc3c(c2)OCO3)c1
(c) NC(=S)N/N=C/c1ccc(O)cc1
(d) COc1cccc(OC)c1/C=N/NC(N)=S
Asked: Ranking field: inhibition at 0.5 h, 10 µM; order: falling. Answer format: the labels, in the requested order.
Given back: b, a, d, c

(I) C/C(=N\NC(N)=S)c1ccc(O)cc1
(II) CN(C)c1ccc(/C=N/N=C(/N)S)c2ccccc12
(III) NC(=S)N/N=C/c1ccc(O)c(O)c1
(IV) NC(=S)N/N=C/c1ccc(N)cc1
Asked: Returns the items ordered by inhibition at 0.5 h, 10 µM, from maximum to minimum. Give the labels in the order requested.
Given back: II, I, III, IV

(P) NC(=S)N/N=C/C=C/c1ccccc1
(Q) N/C(S)=N/N=C/c1cccc(Br)c1
(R) Cc1ccsc1/C=N/NC(N)=S
Asked: List by increasing inhibition at 0.5 h, 10 µM. A complete answer lists every label in the requested sequence.
Given back: Q, P, R
(Q: -19.8%, P: -13.1%, R: -8.16%)

(P) NC(=S)N/N=C/c1ccccc1[N+](=O)[O-]
(Q) COc1ccc(-c2cccc(/C=N/NC(N)=S)c2)cc1OC
Asked: Compare reported inhibition at 0.5 h, 10 µM values for P and Q . Which is lower? # reply format: chosen label
Given back: P

(1) NC(=S)N/N=C/c1ccc2ncccc2c1
(2) NC(=S)N/N=C/c1ccc(OCc2ccc(Cl)c(Cl)c2)cc1
(3) C/C(=N\NC(N)=S)c1ccc(N)cc1
Asked: Please list the entries, largest inhibition at 0.5 h, 10 µM first. Quick reminder: the answer is the labels in the order asked.
Given back: 2, 3, 1
(2: 10.6%, 3: -4.06%, 1: -13.5%)

(A) NC(=S)N/N=C/c1ccco1
(B) NC(=S)N/N=C/C(O)C(O)C(O)CO (stereo not given)
Asked: When A and B are compared, which has the higher number for inhibition at 0.5 h, 10 µM? Record your answer as the label of the chosen record.
Given back: A

(1) CSc1ccc(/C=N/NC(N)=S)cc1
(2) COc1cc(/C=N/NC(N)=S)cc(OC)c1OC
Asked: API: POST /compare with 1 and 2 ; response names the item with higher inhibition at 0.5 h, 10 µM. Use the label to indicate which entry you chose.
Given back: 1

---

# reported cell growth (% of control) at 48 h, 10 µM; entries follow
# measurement-notes: Cytotoxicity against human A549 cells assessed as growth inhibition at 10 uM after 48 hrs by CellTiter-Glo assay relative to control; values are per cent of control
# condition-details: A549 cells
Reply numerically in %, unit not repeated.

Guide cases for cell growth (% of control) at 48 h, 10 µM, answers given:
>>> experimental_result("NC(=S)N/N=C/c1cccc(-c2ccccc2)c1")
110
>>> experimental_result("NC(=S)N/N=C/c1ccc(-c2ccccc2)cc1")
138

Asked: Dear colleague, I am looking for the recorded cell growth (% of control) at 48 h, 10 µM of the following molecule: COc1ccc(-c2cccc(/C=N/NC(N)=S)c2)cc1OC
Given back: 90.5

Asked: Query (molecule): NC(=S)N/N=C/c1cccc(-c2ccc3c(c2)OCO3)c1 ; field requested: cell growth (% of control) at 48 h, 10 µM
Given back: 111

Asked: Looking for the measured cell growth (% of control) at 48 h, 10 µM of Cc1ccsc1/C=N/NC(N)=S , can you help?
Given back: 91.9

Asked: Look at this molecule and give its reported cell growth (% of control) at 48 h, 10 µM. N/C(S)=N/N=C/c1ccc([N+](=O)[O-])cc1
Given back: 128

Asked: Need cell growth (% of control) at 48 h, 10 µM of NC(=S)N/N=C/C(O)C(O)C(O)CO (stereo not drawn) , thanks.
Given back: 129

Asked: For the molecule N/C(S)=N/N=C/c1cccc(Br)c1 , what cell growth (% of control) at 48 h, 10 µM is on record?
Given back: 130

---

Recorded inhibition at 2 h, 10 µM by entry
# target-under-test: hERG (KCNH2) (Homo sapiens, UniProt Q12809)
# Sequence (Q12809 whole entry): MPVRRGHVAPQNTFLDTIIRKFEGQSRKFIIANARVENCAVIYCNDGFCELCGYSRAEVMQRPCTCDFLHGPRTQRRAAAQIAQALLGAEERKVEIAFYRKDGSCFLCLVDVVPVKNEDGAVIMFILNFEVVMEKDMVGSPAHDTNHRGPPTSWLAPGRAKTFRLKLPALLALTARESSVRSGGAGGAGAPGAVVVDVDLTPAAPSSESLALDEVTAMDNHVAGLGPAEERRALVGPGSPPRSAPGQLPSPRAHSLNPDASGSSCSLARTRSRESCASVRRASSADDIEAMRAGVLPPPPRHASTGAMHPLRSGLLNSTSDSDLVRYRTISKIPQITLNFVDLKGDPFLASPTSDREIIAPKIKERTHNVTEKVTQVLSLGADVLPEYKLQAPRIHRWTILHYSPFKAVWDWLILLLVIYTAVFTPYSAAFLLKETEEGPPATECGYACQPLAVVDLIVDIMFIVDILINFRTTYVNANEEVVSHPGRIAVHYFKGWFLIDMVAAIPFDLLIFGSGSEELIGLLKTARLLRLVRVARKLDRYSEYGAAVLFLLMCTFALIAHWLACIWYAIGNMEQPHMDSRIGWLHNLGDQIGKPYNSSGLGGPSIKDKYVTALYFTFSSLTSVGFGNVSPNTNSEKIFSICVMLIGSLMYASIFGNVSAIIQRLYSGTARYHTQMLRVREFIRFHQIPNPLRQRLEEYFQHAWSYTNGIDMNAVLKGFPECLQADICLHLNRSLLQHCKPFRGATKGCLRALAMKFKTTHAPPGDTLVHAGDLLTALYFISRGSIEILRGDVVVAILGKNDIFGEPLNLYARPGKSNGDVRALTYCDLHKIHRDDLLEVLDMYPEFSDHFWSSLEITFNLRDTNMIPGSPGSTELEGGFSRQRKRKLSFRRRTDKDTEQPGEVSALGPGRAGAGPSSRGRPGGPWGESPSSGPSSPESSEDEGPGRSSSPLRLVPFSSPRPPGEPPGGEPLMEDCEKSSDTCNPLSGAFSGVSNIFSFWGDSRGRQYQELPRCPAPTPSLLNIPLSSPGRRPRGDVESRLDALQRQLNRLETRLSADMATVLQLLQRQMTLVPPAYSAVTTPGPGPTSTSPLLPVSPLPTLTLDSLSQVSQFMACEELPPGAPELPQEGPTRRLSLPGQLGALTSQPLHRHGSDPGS
# measurement-notes: Inhibition of human ERG at 10 uM incubated for 2 hrs by fluorescence polarisation assay relative to control
A number alone suffices; assume %.

>>> experimental_result("NC(=S)N/N=C/c1ccc(OCc2ccc(Cl)c(Cl)c2)cc1")
2.4
>>> experimental_result("COc1cc(/C=N/NC(N)=S)cc(OC)c1OC")
-1.36
>>> experimental_result("COc1cc(/C=N/NC(N)=S)ccc1O")
6.07

Asked: Can you look up the measured inhibition at 2 h, 10 µM of C/C(=N\NC(N)=S)c1ccc(N)cc1 for me?
Given back: 6.38

Asked: Suppose we examine the compound NC(=S)N/N=C/c1cccc(-c2ccc3c(c2)OCO3)c1 ; what inhibition at 2 h, 10 µM value has been reported?
Given back: 9.13

---

# Tested on: Trypanosoma cruzi
# measurement-notes: Antitrypanosomal activity against Trypanosoma cruzi amastigote form infected in human U2OS cells assessed as parasite growth inhibition at 50 uM after 72 hrs relative to control
# Format: functional
# condition-details: read-out: GI
Recorded inhibition of growth at 50 µM, one value per entry.
Numeric answer only, unit % assumed.

Sample answers from the record:
>>> experimental_result("N/C(S)=N/N=C/c1cccc(Br)c1")
90.8
>>> experimental_result("NC(=S)N/N=C/c1ccco1")
93.6
>>> experimental_result("CN(C)c1ccc(/C=N/N=C(/N)S)c2ccccc12")
8.05
>>> experimental_result("NC(=S)N/N=C/c1ccc(OCc2ccc(Cl)c(Cl)c2)cc1")
80.5
>>> experimental_result("C/C(=N\\NC(N)=S)c1ccc(O)cc1")
37
>>> experimental_result("NC(=S)N/N=C/c1ccccc1O")
86.1

Asked: Which inhibition of growth at 50 µM is reported for this compound? COc1ccc(-c2cccc(/C=N/NC(N)=S)c2)cc1OC
Given back: 82.4

Asked: Field request: inhibition of growth at 50 µM | item: Nc1nnc(-c2ccc(-c3ccccc3)cc2)s1
Given back: 31.2

Asked: Which inhibition of growth at 50 µM reading was recorded for the compound COc1ccc(-c2nnc(N)s2)cc1OC ?
Given back: 30.2

Asked: Can you look up the measured inhibition of growth at 50 µM of Nc1nnc(-c2ccc(O)c(O)c2)s1 for me?
Given back: 16.6

---

# measurement-notes: Cytotoxicity against human U2OS cells assessed as viable cells at 50 uM after 72 hrs by MTT assay relative to control
# Assay type: cell-based
# condition-details: read-out: Activity
reported-metric: viability at 72 h, 50 µM (%)
Only the number, expressed in %, is required.

Recorded viability at 72 h, 50 µM, per entry:
>>> experimental_result("CN(C)c1ccc(/C=N/N=C(/N)S)c2ccccc12")
99.5
>>> experimental_result("C/C(=N\\NC(N)=S)c1ccc(N)cc1")
113
>>> experimental_result("NC(=S)N/N=C/c1ccc(OCc2ccc(Cl)c(Cl)c2)cc1")
65.5

Kindly review the next molecule as well.
Asked: Name the recorded viability at 72 h, 50 µM for N/C(S)=N/N=C/c1cccc(Br)c1 .
Given back: 57.3

---

# target-under-test: UniProt P33261
# Sequence (P33261 whole entry): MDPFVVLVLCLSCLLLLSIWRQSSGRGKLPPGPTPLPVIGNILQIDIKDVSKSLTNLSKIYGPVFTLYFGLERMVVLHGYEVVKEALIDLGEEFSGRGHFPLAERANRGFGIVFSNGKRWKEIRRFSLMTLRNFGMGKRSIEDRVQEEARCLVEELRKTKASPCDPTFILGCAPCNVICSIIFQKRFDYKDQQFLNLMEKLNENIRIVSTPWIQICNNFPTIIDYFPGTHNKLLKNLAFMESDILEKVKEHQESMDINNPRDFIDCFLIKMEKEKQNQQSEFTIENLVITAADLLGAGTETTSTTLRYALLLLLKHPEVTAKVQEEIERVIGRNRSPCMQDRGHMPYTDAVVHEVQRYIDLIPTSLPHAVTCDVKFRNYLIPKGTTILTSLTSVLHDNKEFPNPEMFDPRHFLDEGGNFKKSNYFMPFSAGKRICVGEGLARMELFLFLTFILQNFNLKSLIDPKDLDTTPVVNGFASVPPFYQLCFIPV
# measurement-notes: Inhibition of human microsomal CYP2C19 expressed in baculovirus infected BTI-TN-5B1-4 cells at 10 uM incubated for 30 mins by luciferase assay relative to control
# Assay type: ADME
reported-metric: inhibition at 0.5 h, 10 µM (%)

>>> experimental_result("NC(=S)N/N=C/c1ccccc1[N+](=O)[O-]")
-40.6
>>> experimental_result("NC(=S)N/N=C/c1ccc(N)cc1")
-39.5
>>> experimental_result("COc1cc(/C=N/NC(N)=S)ccc1O")
-20.3
>>> experimental_result("NC(=S)N/N=C/c1cccc(-c2ccccc2)c1")
-27.2
>>> experimental_result("NC(=S)N/N=C/c1ccco1")
-43.2
>>> experimental_result("COc1cc(/C=N/NC(N)=S)cc(OC)c1OC")
-28.1
>>> experimental_result("NC(=S)N/N=C/c1ccc(OCc2ccc(Cl)c(Cl)c2)cc1")
10.4
>>> experimental_result("NC(=S)N/N=C/c1cccc(-c2ccc3c(c2)OCO3)c1")
48.4
>>> experimental_result("NC(=S)N/N=C/c1ccccc1O")
-20.6
>>> experimental_result("NC(=S)N/N=C/c1ccc2ncccc2c1")
-34.6

(1) C/C(=N\NC(N)=S)c1ccc(N)cc1
(2) COc1ccc(-c2cccc(/C=N/NC(N)=S)c2)cc1OC
Asked: Consider entries 1 and 2 . Which has the numerically lower inhibition at 0.5 h, 10 µM? Please reply using the label of the selected record.
Given back: 1
